Data origin: the supplement of paper PMC10567573

B1: FAM98B (parent)
chain: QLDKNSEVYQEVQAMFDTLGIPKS

# Variants of: B1
# test_description: protein stability index of a GFP-peptide fusion (GPS, HEK-293T) (PSI 1-6); higher = more stable;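 note: lentivirally expressed fusions sorted by FACS into six bins by GFP to DsRed ratio, PSI derived from sequencing read proportions per bin multiplied by bin number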
# conditions_used: c terminus: a fixed tail appended
measurement_label: protein stability index

* D3L | 2.06
* S6R | 2.88
* K4V | 2.2
* V12I | 3.04
* T18G | 3.25
* A14L | 2.83
* G20A | 3.04
* L2K | 4.27
* A14I | 3.22
* S24T | 2.48
* Y9D | 4.2
* E7M | 3.01
* L2Y | 4.08
* P22T | 3.48
* V8W | 2.88
* K23M | 3.38
* D17H | 2.43
